Give measured IC50 for each item. Keep answers brief.
Target: UniProt:Q9WTR4
Sequence (Q9WTR4 whole entry): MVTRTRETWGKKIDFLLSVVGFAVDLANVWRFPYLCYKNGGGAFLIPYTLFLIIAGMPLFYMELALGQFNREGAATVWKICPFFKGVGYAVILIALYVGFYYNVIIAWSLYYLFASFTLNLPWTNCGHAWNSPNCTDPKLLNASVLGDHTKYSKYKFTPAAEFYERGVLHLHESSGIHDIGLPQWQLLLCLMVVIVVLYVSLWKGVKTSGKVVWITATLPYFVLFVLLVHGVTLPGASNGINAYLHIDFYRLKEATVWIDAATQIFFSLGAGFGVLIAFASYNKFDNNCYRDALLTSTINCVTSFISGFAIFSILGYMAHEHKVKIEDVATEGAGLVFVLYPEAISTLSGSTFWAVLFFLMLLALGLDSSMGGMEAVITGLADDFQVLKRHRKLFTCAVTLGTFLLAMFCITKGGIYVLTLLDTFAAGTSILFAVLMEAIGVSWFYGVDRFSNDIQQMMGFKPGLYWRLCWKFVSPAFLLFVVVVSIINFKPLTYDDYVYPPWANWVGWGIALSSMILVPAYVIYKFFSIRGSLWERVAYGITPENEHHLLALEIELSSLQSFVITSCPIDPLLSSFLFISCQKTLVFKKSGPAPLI
Answers are plain numbers, in µM.

>  <COMPOUND>
COC(=O)C1C(c2ccc3ccccc3c2)CC2CC[C@H]1N2C (stereo partly drawn)

>  <EXPERIMENTAL READOUT>
IC50

>  <READOUT VALUE>
0.0702

$$$$
>  <COMPOUND>
COC(=O)C1=C(c2ccc3ccccc3c2)CC2CCC1N2C (stereo not drawn)

>  <EXPERIMENTAL READOUT>
IC50

>  <READOUT VALUE>
0.372

$$$$
>  <COMPOUND>
COC(=O)C1[C@@H](c2ccc(C#CCCCCO)cc2)CC2CC[C@H]1N2C (stereo partly drawn)

>  <EXPERIMENTAL READOUT>
IC50

>  <READOUT VALUE>
9.5

$$$$

Parameters: items (list). Returns: IC50 for each item.
1. CCCc1ccc([C@H]2CC3CC[C@H](C2C(=O)OC)N3C)cc1 (stereo partly drawn)
2. CC#Cc1ccc([C@H]2CC3CC[C@H](C2C(=O)OC)N3C)cc1 (stereo partly drawn)
3. COC(=O)C1[C@@H](c2ccc3ccccc3c2)CC2CC[C@H]1N2C (stereo partly drawn)
4. COC(=O)C1[C@@H](c2ccc(-c3ccccc3)cc2)CC2CC[C@H]1N2C (stereo partly drawn)
5. C=C(c1ccccc1)c1ccc([C@H]2CC3CC[C@H](C2C(=O)OC)N3C)cc1 (stereo partly drawn)
6. C/C=C\c1ccc([C@H]2CC3CC[C@H](C2C(=O)OC)N3C)cc1 (stereo partly drawn)

Key:
[3.92, 0.82, 0.0211, 1.48, 7.06, 1.59]

Parameters: items (list). Returns: IC50 for each item.
1. COC(=O)C1[C@@H](c2ccc(/C=C/Cc3ccccc3)cc2)CC2CC[C@H]1N2C (stereo partly drawn)
2. COC(=O)C1[C@@H](c2ccc(Cc3ccccc3)cc2)CC2CC[C@H]1N2C (stereo partly drawn)

Key:
1. 1.25
2. 6.67

Parameters: items (list). Returns: IC50 for each item.
1. C#Cc1ccc([C@H]2CC3CC[C@H](C2C(=O)OC)N3C)cc1 (stereo partly drawn)
2. C=Cc1ccc([C@H]2CC3CC[C@H](C2C(=O)OC)N3C)cc1 (stereo partly drawn)
3. COC(=O)C1[C@@H](c2ccc(C#CCCc3ccccc3)cc2)CC2CC[C@H]1N2C (stereo partly drawn)
4. COC(=O)C1[C@@H](c2ccc(CCCc3ccccc3)cc2)CC2CC[C@H]1N2C (stereo partly drawn)

Key:
1. 0.0832
2. 0.078
3. 1.47
4. 14.2

Parameters: items (list). Returns: IC50 for each item.
1. COC(=O)C1[C@@H](c2ccc(CCc3ccccc3)cc2)CC2CC[C@H]1N2C (stereo partly drawn)
2. COC(=O)C1[C@@H](c2ccc(/C=C/c3ccccc3)cc2)CC2CC[C@H]1N2C (stereo partly drawn)
3. COC(=O)C1C2CC[C@H](C[C@H]1c1ccc(C)cc1)N2C (stereo partly drawn)

Key:
0.0108
1.96
0.06
